target: human IFN-α17 (human, UniProt P01571 24-189); assay: cell-based or functional assay
Sequence (P01571 24-189 limits assumed): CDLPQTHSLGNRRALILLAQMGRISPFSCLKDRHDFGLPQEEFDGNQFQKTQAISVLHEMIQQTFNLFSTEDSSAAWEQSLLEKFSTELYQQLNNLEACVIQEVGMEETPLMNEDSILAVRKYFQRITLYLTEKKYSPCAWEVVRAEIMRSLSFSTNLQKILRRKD
measurement-type: IC 50 (ng/ml), ISRE dual luciferase reporter assay (ng/mL)
One number for each entry, in ng/mL.

// batch mode: one IC 50 (ng/ml), ISRE dual luciferase reporter assay value per listed entry
1. 12H5 (antibody, human IgG1, kappa, V domains shown) VH: QVQLIQSGPEVKRPGASVKVSCKASENTFDTHYINWVRQAPGQGLTWLGWLNPTTGKTGFPQKFKGRVILTSDTSLNTAYMEVSRLTSEDTAVYFCARVLKLSDEYNYGFDVWGQGTTVIVSS VL: DIQVTQSPSSLSASIGDRVTITCRASQNILTFINWYQHKPGKAPKLLIYAASVLQNEVPSRFSGSGSGTDFTLTITSLQPDDFGTYYCQQTYLTPQCSFGQGTKVEIKR
2. 50E11 (antibody, human IgG1, kappa, V domains shown) VH: QVQLVQSGAEMKKPGSSVKVSCKDFGGTFSVYGVNWVRQAPGQGLEWMGGLIPVIGPANYAQKFQGRITITADESTSTAYMELSSLRFDDTAIYYCVRDDNEYWGQGTLVTVSS VL: EMVLTQSPATLSLSPGERATLSCRASQTVSTFLAWYQQKPGQVPRLLVYDISSRANGTPARFSGGGSGTDFTLTISSLELEDFAVYYCQWRSNWPPSLTFGGGTRVEIKR

0.75
2.31

// batch mode: one IC 50 (ng/ml), ISRE dual luciferase reporter assay value per listed entry
1. 26B9 (antibody, human IgG1, kappa, V domains shown, human-derived IgG1, kappa; also called MAB 26B9; hMAB 26B9) VH: QILLQESGPGLVKPTETLSLTCSVSGDSISDSSHYWAWIRQPPGKGPEWIGSVYFSSMTHYNPSLKSRVSISVDKPKNQFSLKVTSVTVADTATYYCARQALARVGAMNWFDPWGQGSLVTVSS VL: DIIMTQSPDSLPVSLGEGVTINCKSSQSVFFTSSNKSCLAWYQQKPGKSPKLLIYWASTRQSGVPDRFRGSGSGTDFSLTITSLQAEDVAVYFCQQCQTSPPTFGGGTRLEIKR
2. 8H1 (antibody, human IgG1, kappa, V domains shown) VH: QVQLVQSGAEVKKPGASVKVSCKASGQTFTSDDINWVRQAPGQGLEWMGWRNPNTQDTGYAQKFHGRLTLTSNSSISTSYLELSGLRSEDTAVYYCARAGTSTLTGHYFALGVWGQGTTVIVSS VL: DIQLTQSPSSLSASVGDRVTITCQATQDISKYLNWYQQKPGKVPKLLIYETSNLEVGVPSRFSGSGSGTHFTLTISSLQAEDFATYYCQQYENFPFTFGGGTKVEIKR

1: 2.22; 2: 2.11

Recorded values, source patent US20190071499A1.
